Target: T1, Cyno CD47 ECD protein, His-tagged, monomer (cyno)
T1 construct: extracellular domain; also called cynomolgus CD47
Test: ProteOn SPR; cyno KD / human KD

- binder: "C47B229 (antibody, V domains shown, human IgG2sigma/kappa) VH: EVQLVQSGAEVKKPGESLKISCKGSGYSFDDAWIGWVRQMPGKGLEWMGIIYPGDSDTRYSPSFQGQVTISADKSISTAYLQWSSLKASDTAVYYCARVGRFASHQLDYWGQGTLVTVSS VL: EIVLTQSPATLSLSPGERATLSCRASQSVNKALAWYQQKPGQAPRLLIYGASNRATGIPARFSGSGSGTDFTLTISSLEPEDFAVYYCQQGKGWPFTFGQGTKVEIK"
  KD Ratio Cyno/Human: 3.9
- binder: "C47B215 (antibody, V domains shown, human IgG2sigma/kappa) VH: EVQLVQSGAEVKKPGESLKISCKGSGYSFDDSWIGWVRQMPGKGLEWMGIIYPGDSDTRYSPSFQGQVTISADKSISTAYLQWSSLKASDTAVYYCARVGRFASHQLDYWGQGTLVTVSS VL: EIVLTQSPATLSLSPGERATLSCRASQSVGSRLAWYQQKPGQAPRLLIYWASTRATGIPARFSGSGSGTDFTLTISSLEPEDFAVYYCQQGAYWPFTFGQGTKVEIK"
  KD Ratio Cyno/Human: 0.7
- binder: "C47B217 (antibody, V domains shown, human IgG2sigma/kappa) VH: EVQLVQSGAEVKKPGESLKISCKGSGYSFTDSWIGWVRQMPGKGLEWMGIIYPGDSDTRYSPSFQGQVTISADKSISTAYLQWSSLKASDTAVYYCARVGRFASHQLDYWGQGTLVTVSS VL: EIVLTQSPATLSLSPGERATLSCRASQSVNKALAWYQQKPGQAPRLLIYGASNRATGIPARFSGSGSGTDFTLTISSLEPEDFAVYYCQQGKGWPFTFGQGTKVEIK"
  KD Ratio Cyno/Human: 0.7
- binder: "C47B214 (antibody, V domains shown, human IgG2sigma/kappa) VH: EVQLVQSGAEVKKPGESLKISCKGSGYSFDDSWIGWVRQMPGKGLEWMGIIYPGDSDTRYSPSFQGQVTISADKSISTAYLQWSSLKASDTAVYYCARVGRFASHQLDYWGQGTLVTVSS VL: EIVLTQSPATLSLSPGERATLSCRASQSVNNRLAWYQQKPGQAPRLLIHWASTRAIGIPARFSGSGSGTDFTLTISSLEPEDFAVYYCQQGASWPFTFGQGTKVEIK"
  KD Ratio Cyno/Human: 0.6
- binder: "C47B213 (antibody, V domains shown, human IgG2sigma/kappa) VH: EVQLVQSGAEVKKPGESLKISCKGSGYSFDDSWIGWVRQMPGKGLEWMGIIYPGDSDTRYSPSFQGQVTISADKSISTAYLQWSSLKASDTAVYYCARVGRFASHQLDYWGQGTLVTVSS VL: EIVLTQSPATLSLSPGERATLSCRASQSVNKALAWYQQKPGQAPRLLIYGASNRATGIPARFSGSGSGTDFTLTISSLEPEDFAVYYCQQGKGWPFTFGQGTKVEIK"
  KD Ratio Cyno/Human: 1.8
